target: AR protein (Homo sapiens, UniProt P10275); construct: host or cells: VCaP; assay: AR protein degradation in VCaP cells (Western blot); assay type: cell-based; conditions: 0.5 nM, 8h
Sequence (P10275 whole entry): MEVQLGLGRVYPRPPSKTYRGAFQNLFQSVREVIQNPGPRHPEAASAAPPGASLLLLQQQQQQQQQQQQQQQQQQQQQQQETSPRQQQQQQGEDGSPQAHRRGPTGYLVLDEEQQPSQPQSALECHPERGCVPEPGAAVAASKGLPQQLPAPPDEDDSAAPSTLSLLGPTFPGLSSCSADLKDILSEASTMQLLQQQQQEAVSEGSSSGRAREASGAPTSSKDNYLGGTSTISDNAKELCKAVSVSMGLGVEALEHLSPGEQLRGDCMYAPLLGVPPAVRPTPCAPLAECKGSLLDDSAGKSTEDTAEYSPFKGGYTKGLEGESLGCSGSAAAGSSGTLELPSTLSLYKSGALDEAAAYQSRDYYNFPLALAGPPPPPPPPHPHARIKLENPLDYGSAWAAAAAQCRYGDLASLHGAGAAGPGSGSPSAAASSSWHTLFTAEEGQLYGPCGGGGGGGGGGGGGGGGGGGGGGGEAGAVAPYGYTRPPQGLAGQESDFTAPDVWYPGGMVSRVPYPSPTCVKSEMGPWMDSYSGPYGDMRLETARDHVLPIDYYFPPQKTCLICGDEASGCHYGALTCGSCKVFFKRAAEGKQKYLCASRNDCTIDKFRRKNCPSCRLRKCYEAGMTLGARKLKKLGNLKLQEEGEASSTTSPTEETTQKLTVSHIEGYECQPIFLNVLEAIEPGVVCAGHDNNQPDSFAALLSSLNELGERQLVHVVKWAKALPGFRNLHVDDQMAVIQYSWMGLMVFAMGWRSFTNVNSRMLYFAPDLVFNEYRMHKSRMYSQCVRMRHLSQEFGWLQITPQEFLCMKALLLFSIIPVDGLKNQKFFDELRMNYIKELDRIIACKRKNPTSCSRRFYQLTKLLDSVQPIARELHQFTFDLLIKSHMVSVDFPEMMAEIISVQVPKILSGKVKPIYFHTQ
measurementType: Degradation rate of AR protein in VCaP cells (%)

Sample answers from the record:
{"columns": ["molecule", "experimentalResult"],
 "data": [
  ["COc1cc(O[C@H]2C(C)(C)[C@H](NC(=O)c3ccc(N4CCC(F)(CN5CC6(CCC7(CC6)COc6c7ccc7c6CN(C6CCC(=O)NC6=O)C7=O)C5)CC4)cc3)C2(C)C)ccc1C#N (relative stereo)", 38],
  ["COc1cc(O[C@H]2C(C)(C)[C@H](NC(=O)c3ccc(N4CCC(F)(CN5CCC6(CC5)COc5c6ccc(C(=O)N[C@H]6CCC(=O)NC6=O)c5F)CC4)cc3)C2(C)C)ccc1C#N", -14]
]}

A = COc1cc(O[C@H]2C(C)(C)[C@H](NC(=O)c3ccc(N4CCC(CN5CCC6(CCc7cc(C(=O)N[C@H]8CCC(=O)NC8=O)c(F)cc7O6)CC5)CC4)nn3)C2(C)C)ccc1C#N
B = N#Cc1ccc(O[C@H]2CC[C@H](NC(=O)c3ccc(N4CCC(N5CC6(CCC7(CC6)COc6c7ccc7c6CN(C6CCC(=O)NC6=O)C7=O)C5)CC4)nn3)CC2)cc1Cl (relative stereo)
Ask: So which one has the bigger Degradation rate of AR protein in VCaP cells here, A or B ? Write down the label attached to your selection.
Result: B
(B: 69%, A: 0%)
